- Tested on: OVCAR-5 ovarian
- PROCEDURE TEXT: NCI-60 one-dose screen, 48 h (100 = growth as untreated, 0 = no growth, -100 = all killed)
- CONDITION LABEL: 10 µM unless noted
- Description: Growth inhibition of the OVCAR-5 human tumor cell line is measured as a screen for anti-cancer activity. Cells are grown in 96 well plates and exposed to the test compound for 48 hours. Compounds are tested at a single concentration, which is 10^-5 M for most compounds. The reported endpoint is percent growth (GI% or GIPRCNT), where numbers from 0 - 100% represent growth inhibition, and numbers from -100% - 0 represent cell death. For example, a value of 40 represents 60% growth inhibition. […]
The panel holds about 83,000 compounds, 20% with a hit somewhere; the sample as a whole holds those more often.

COMPOUND: C=CCN1C(=O)c2cccc3c(-c4ccc5c(c4)ncn5C4CCCCC4)ccc(c23)C1=O
growth / %: 75.3
//
COMPOUND: N#Cc1c(-c2ccc(C(F)(F)F)cc2)c(F)c(NCCC2CCC(O)C2)n2c1nc1ccccc12 (configuration not stated)
growth / %: 88.7
//
COMPOUND: Cc1cc(N2CCOCC2)nc(N(CCNc2ccnc3cc(Cl)ccc23)Cc2cccs2)n1
growth / %: 83.2
//
COMPOUND: COC(=O)CNC(=O)[C@@H](OC)[C@@H]1Cc2cc3cc(OC4CC(OC5CC(O)C(O)C(C)O5)C(O)C(C)O4)c(C)c(O)c3c(O)c2C(=O)[C@H]1OC1CC(OC2CC(OC3CC(C)(O)C(O)C(C)O3)C(O)C(C)O2)C(O)C(C)O1 (some centres not stated)
growth / %: 16.4
//
COMPOUND: O=S1(=O)OC(c2ccc(O)c(Cl)c2)(c2ccc(O)c(Cl)c2)c2ccccc21
growth / %: 96.5
//
COMPOUND: CCN(CC)CCN1C(=O)c2cccc3c(-c4ccc5c(c4)ncn5C4CCCCC4)ccc(c23)C1=O
growth / %: 36.4
//
COMPOUND: CCOC(=O)C1=C(C)N=C2Sc3cc(OC(F)(F)F)ccc3N2[C@H]1c1ccccn1
growth / %: 65
//
COMPOUND: COc1cc2ncnc3c2cc1OCCCCCN(C)Cc1ccc(Br)cc1N3
growth / %: 50.1
//
COMPOUND: O=C(O)c1ccc2c(c1)nc(Nc1cccc(Cl)c1)c1ccncc12
growth / %: 10.6
//
COMPOUND: Cc1ccc(F)c(NC(=O)Nc2ccc(-c3cccc4[nH]nc(N)c34)cc2)c1
growth / %: 21.4
//
COMPOUND: CNS(=O)(=O)Nc1nccc(Cc2c(C)c3ccc(Oc4ncccn4)cc3oc2=O)c1F
growth / %: 20.4
//
COMPOUND: C=C1C(=O)O[C@H]2[C@H]1CC/C(C=Nc1c(N)cc(C(F)(F)F)cc1C(F)(F)F)=C\CC[C@@]1(C)O[C@@H]21
growth / %: -9.13
//
COMPOUND: Cc1ccc(NC(=O)c2ccc(CN3CC[C@H](N(C)C)C3)c(C(F)(F)F)c2)cc1Nc1nccc(-c2cncnc2)n1
growth / %: 15.3
//
COMPOUND: COc1cc2c(Oc3ccc4[nH]c(C)cc4c3F)ncnc2cc1OCCCN1CCCC1
growth / %: 78.4
//
COMPOUND: O=C(c1ccccc1)C(c1ccccc1)N1CCOCC1 (configuration not stated)
growth / %: 105
//
COMPOUND: O=C1NC(=O)[C@@H](c2cn3c4c(cccc24)CCC3)[C@@H]1c1c[nH]c2ccccc12
growth / %: 48
//
COMPOUND: CCCc1cc2cc(-n3nc(C)c4c3CC(C)(C)CC4=O)cc(NC3CCC(O)CC3)c2c(=O)[nH]1 (configuration not stated)
growth / %: 50.5
//
COMPOUND: Cc1cc(Nc2ncnc3ccc(NC4=NC(C)(C)CO4)cc23)ccc1Oc1ccn2ncnc2c1
growth / %: 14.3
//
COMPOUND: NC(=O)c1n[nH]n2c1nc(=O)c1c3c(sc12)CCCC3
growth / %: 111
//
COMPOUND: FC(F)(F)c1ccc(CNc2ccc(Cc3c[nH]c4ncc(Cl)cc34)cn2)cn1
growth / %: 30.5
//
COMPOUND: Cc1cc(C2(c3ccc(O)c(C)c3)OS(=O)(=O)c3ccccc32)ccc1O
growth / %: 110
//
COMPOUND: CC(C)[C@@H]1CC[C@@H]2[C@@H]1[C@H](OC(=O)/C=C/c1ccccc1)[C@]1(C(C)C)C[C@@H](OC(=O)CO)[C@@]2(C)O1
growth / %: 109
//
COMPOUND: N#Cc1cc2[nH]c3ccc(OC(F)(F)F)cc3c2oc1=O
growth / %: 118
//
COMPOUND: O=C(CNc1nnc(-c2ccc(Cl)cc2)o1)Nc1ccc(-c2nc3ccccc3s2)cc1
growth / %: 116
//
COMPOUND: O=C(c1ccc(/C=C/c2n[nH]c3ccccc23)cc1)N1CCNCC1
growth / %: 14.4
//
COMPOUND: O=C(Cn1ccc2ccccc21)Nc1ccc(-c2nc3ccccc3s2)cc1
growth / %: 104
//
COMPOUND: COc1cc2c3c(c1)nc(C)n3CCC2
growth / %: 102
//
COMPOUND: Cc1cc2c3c(cccc3c1)C(=O)c1ccccc1-2
growth / %: 100
//
COMPOUND: CCCCCCCC(=O)SCC/C=C/[C@@H]1CC(=O)NCc2cc(ccn2)C2=N[C@@](C)(CS2)C(=O)N[C@@H](C(C)C)C(=O)O1
growth / %: 2.85
//
COMPOUND: Cn1nccc1Nc1nccc(-c2ccn([C@H](CO)c3ccc(Cl)c(F)c3)c(=O)c2)n1
growth / %: 46.9
//
COMPOUND: Cn1cc(-c2[nH]c3cc(NC(=O)[C@H](N)C4CCCCC4)cc4c3c2C=NNC4=O)cn1
growth / %: 13
//
COMPOUND: CCCCCCCC12Cc3ccccc3C1=Nc1c(c3ccccc3n1C)C2=O (configuration not stated)
growth / %: 86.5
//
COMPOUND: O=C(NOCCO)c1ccc2cncn2c1Nc1ccc(I)cc1F
growth / %: 19.3
//
COMPOUND: Cc1cc(N2CCCC2)nc(N(CCCNc2ccnc3cc(Cl)ccc23)Cc2ccc3c(c2)OCO3)n1
growth / %: -3.2
//
COMPOUND: Cc1cc(Oc2ccccc2)ccc1Nc1ncnc2ccc(-c3cnc(Cl)c(NS(C)(=O)=O)c3)cc12
growth / %: 10.8
//
COMPOUND: Cn1ncc(Cl)c1-c1cc(C(=O)N[C@H](CN)Cc2ccc(F)c(F)c2)oc1Cl
growth / %: 5.81
//
COMPOUND: N#CC[C@H](C1CCCC1)n1cc(-c2ncnc3[nH]ccc23)cn1
growth / %: 50.1

====

- Tested on: ACHN renal
- PROCEDURE TEXT: NCI-60 one-dose screen, 48 h (100 = growth as untreated, 0 = no growth, -100 = all killed)
- CONDITION LABEL: 10 µM unless noted
About 83,000 compounds went through this panel and 20% of them were active in at least one assay; those are over-represented in the sample as a whole.
# note: exactly 40% is not below, so it is n; use y for growth strictly under it

MOLECULE: CCOC(=O)C1=C(C)N=C2Sc3cccc(OC)c3N2[C@H]1c1ccccn1
QUALITATIVE LABEL: n
//
MOLECULE: COc1cc2nc(Nc3cccc(Cl)c3)nc(N)c2cc1OC
QUALITATIVE LABEL: n
//
MOLECULE: COc1cc2ncnc(Nc3cccc(Cl)c3F)c2cc1OC(=O)N1CCN(C)C[C@H]1C
QUALITATIVE LABEL: y
//
MOLECULE: O=C(NC[C@H](O)CO)c1ccncc1Nc1ccc(I)cc1F
QUALITATIVE LABEL: n
//
MOLECULE: CC(CCCC(=O)O)c1ccoc1 (stereo not given)
QUALITATIVE LABEL: n
//
MOLECULE: C/C(=C(/c1ccc(Cl)cc1)c1ccc(OCCN2CCCC2)cc1)c1ccccc1
QUALITATIVE LABEL: n
//
MOLECULE: COC(=O)[C@H](Cc1ccccc1)NC(=O)[C@@H](OC)[C@@H]1Cc2cc3cc(OC4CC(OC5CC(O)C(O)C(C)O5)C(O)C(C)O4)c(C)c(O)c3c(O)c2C(=O)[C@H]1OC1CC(OC2CC(OC3CC(C)(O)C(O)C(C)O3)C(O)C(C)O2)C(O)C(C)O1 (stereo not given in full)
QUALITATIVE LABEL: y
//
MOLECULE: S=C(NCc1ccc2c(c1)OCO2)N1CCN(c2ncnc3c2oc2ccccc23)CC1
QUALITATIVE LABEL: y
//
MOLECULE: COc1cc(OC)c(C(=O)/C=C/c2cc3c(cc2OCc2ccccc2)OC(C)(C)CC3)cc1CC=C(C)C
QUALITATIVE LABEL: n
//
MOLECULE: CCc1ccc(/C=C/c2ccc(O)c3ncccc23)[n+](C)c1
QUALITATIVE LABEL: n
//
MOLECULE: COc1cccc2cc(-c3nc(C4CCC(C(=O)O)CC4)n4ncnc(N)c34)[nH]c12 (stereo not given)
QUALITATIVE LABEL: y
//
MOLECULE: Nc1ncnc2c1ccn2-c1cccc(NC(=O)c2ccc(N3CCOCC3)c(C(F)(F)F)c2)c1
QUALITATIVE LABEL: y
//
MOLECULE: CC(C)n1c(NCCc2ccc(O)c(O)c2)nc2c1c(=O)n(C)c(=O)n2C
QUALITATIVE LABEL: n
//
MOLECULE: CN(C)C/C=C/C(=O)Nc1cc2c(Nc3ccc(F)c(Cl)c3)ncnc2cc1O[C@H]1CCOC1
QUALITATIVE LABEL: y
//
MOLECULE: CCCCCCCCCCCC[n+]1ccccc1
QUALITATIVE LABEL: y
//
MOLECULE: Nc1nc(=S)c2ncn(C3OC(COC(=O)c4ccc(Cl)cc4)C(OC(=O)c4ccc(Cl)cc4)C3OC(=O)c3ccc(Cl)cc3)c2[nH]1 (stereo not given)
QUALITATIVE LABEL: n
//
MOLECULE: CC[n+]1c(/C=C/C=C2\N(C)c3ccccc3C2(C)C)sc2ccccc21
QUALITATIVE LABEL: y
//
MOLECULE: N#CC1(C#N)C(c2cccs2)NC(c2cccs2)C1(C#N)C#N (stereo not given)
QUALITATIVE LABEL: n
//
MOLECULE: COc1cc2ncnc(Oc3cccc(NC(=O)Nc4cc(C(C)(C)C(F)(F)F)on4)c3)c2cc1OC
QUALITATIVE LABEL: y
//
MOLECULE: Cc1sc2c(c1C)c(=O)nc1c(-c3nc4ccccc4s3)n[nH]n12
QUALITATIVE LABEL: n
